What IC50 was measured for each of the following?
- assayTarget: VEGFR-2 (Homo sapiens, UniProt P35968)
- Construct: was evaluated using an enzyme assay with a recombinant kinase domain
- Sequence (P35968 834-1162 limits assumed): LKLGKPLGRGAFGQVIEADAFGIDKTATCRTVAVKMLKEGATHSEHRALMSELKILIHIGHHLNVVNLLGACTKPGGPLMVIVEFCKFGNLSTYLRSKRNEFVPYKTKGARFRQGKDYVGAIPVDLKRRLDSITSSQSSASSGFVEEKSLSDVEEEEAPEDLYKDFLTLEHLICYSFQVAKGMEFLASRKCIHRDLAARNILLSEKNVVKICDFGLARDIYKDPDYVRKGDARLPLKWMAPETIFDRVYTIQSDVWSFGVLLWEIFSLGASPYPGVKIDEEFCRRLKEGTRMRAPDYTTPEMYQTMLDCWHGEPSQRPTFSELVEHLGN
- methodNotes: HTRF enzyme assay with recombinant VEGFR-2 kinase domain
- recordedConditions: purified recombinant VEGFR-2 kinase domain, HTRF; read-out: Inhibitory Activity, IC50, VEGFR-2
Numbers only, in nM.

Cc1cc2ccnc(NCc3ccnc4ccccc34)c2c(=O)n1-c1ccc(OC(F)(F)F)cc1 [Compound 10r]: 31.7
Cc1cc2ccnc(NCc3ccnc4ccccc34)c2c(=O)n1-c1ccc(F)cc1F [Compound 10s]: 887

# context switch: different molecule, same IC50
Query Cc1cc2ccnc(NCc3ccnc4ccccc34)c2c(=O)n1-c1ccccc1 [Compound 10h] yields IC50 of 1030

----------
What pIC50 was measured for each of the following?
- assayTarget: VEGFR-2 (Homo sapiens)
- Construct: was evaluated using an enzyme assay with a recombinant kinase domain
- methodNotes: HTRF enzyme assay with recombinant VEGFR-2 kinase domain
- recordedConditions: purified recombinant VEGFR-2 kinase domain, HTRF; read-out: Inhibitory Activity, IC50, VEGFR-2
- Protocol: The ability of the synthesized compounds to inhibit MET, c-Kit, and VEGFR-2 activities was evaluated using an enzyme assay with a recombinant kinase domain [29]. […] The ability of compounds to inhibit the activity of three kinases (MET, c-Kit, and VEGFR-2) was tested in vitro [30]. Enzyme assays were run in homogeneous time-resolved fluorescence (HTRF) format in 384-well microtiter plates using purified kinases purchased from Invitrogen (Carlsbad, CA, US). […]
pIC50: −log10 of the molar value.

Worked examples follow.
Cc1cc2ccnc(NCc3cccnc3)c2c(=O)n1-c1ccc(OC(F)(F)F)cc1 [Compound 10n]: < 5.30
Cc1cc2ccnc(Nc3cccnc3)c2c(=O)n1-c1ccc(F)cc1 [Compound 10a]: < 5.30
Cc1cc2ccnc(NCc3ccnc4ccccc34)c2c(=O)n1-c1ccc(F)cc1 [Compound 10d]: 6.68

The following compounds each have a reported value; give each one's pIC50.
1. Cc1cc2ccnc(NCc3cccc4ccccc34)c2c(=O)n1-c1ccc(OC(F)(F)F)cc1 [Compound 10q]
2. Cc1cc2ccnc(NCc3ccncc3)c2c(=O)n1-c1ccc(OC(F)(F)F)cc1 [Compound 10o]
3. Cc1cc2ccnc(NCc3ccncc3)c2c(=O)n1-c1ccc(F)cc1 [Compound 10c]
4. Cc1cc2ccnc(Nc3cccnc3)c2c(=O)n1-c1ccccc1 [Compound 10e]
5. Cc1cc2ccnc(NCc3ccnc4ccccc34)c2c(=O)n1-c1ccc(Cl)cc1 [Compound 10l]

Response line:
< 5.30
6.27
< 5.30
< 5.30
7.25

----------
What IC50 was measured for each of the following?
- assayTarget: MET (Homo sapiens, UniProt P08581)
- Construct: was evaluated using an enzyme assay with a recombinant kinase domain
- Sequence (P08581 1078-1345 limits assumed): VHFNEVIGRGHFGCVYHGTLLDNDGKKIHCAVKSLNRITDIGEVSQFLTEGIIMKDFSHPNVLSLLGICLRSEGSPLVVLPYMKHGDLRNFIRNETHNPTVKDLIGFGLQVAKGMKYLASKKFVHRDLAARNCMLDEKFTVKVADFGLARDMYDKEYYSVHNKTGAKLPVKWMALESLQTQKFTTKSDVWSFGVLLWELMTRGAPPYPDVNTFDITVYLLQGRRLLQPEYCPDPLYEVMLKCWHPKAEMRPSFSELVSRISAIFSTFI
- methodNotes: HTRF enzyme assay with recombinant MET kinase domain
- recordedConditions: purified recombinant MET kinase domain, read-out: Inhibitory Activity, IC50, MET

Worked examples follow.
Cc1cc2ccnc(NCc3ccnc4ccccc34)c2c(=O)n1-c1ccc(OC(F)(F)F)cc1 [Compound 10r]: > 5 µM
O=c1c2c(NCc3cccc4ccccc34)nccc2ccn1-c1ccc(F)cc1 [Compound 9j]: > 5 µM
O=c1c2c(Nc3ccccc3)nccc2ccn1-c1ccc(F)cc1 [Compound 9a]: > 5 µM

The following molecules each have a reported value; give each one's IC50.
1. Cc1cc2ccnc(NCc3ccnc4ccccc34)c2c(=O)n1-c1ccccc1 [Compound 10h]
2. Cc1cc2ccnc(NCc3ccnc4ccccc34)c2c(=O)n1-c1ccc(F)cc1 [Compound 10d]
3. Cc1cc2ccnc(NCc3ccco3)c2c(=O)n1-c1ccc(OC(F)(F)F)cc1 [Compound 10p]
4. Cc1cc2ccnc(NCc3cccnc3)c2c(=O)n1-c1ccc(Cl)cc1 [Compound 10j]
5. Cc1cc2ccnc(NCc3ccnc4ccccc34)c2c(=O)n1-c1ccc(F)cc1F [Compound 10s]
6. O=c1c2c(Nc3ccc4ccncc4c3)nccc2ccn1-c1ccc(F)cc1 [Compound 9e]
7. O=c1c2c(NCc3ccnc4ccccc34)nccc2ccn1-c1ccc(F)cc1 [Compound 9k]

Response line:
["> 5 µM", "> 5 µM", "> 5 µM", "> 5 µM", "> 5 µM", "> 5 µM", "> 5 µM"]

The following molecules each have a reported value; give each one's IC50.
1. O=c1c2c(NCc3ccco3)nccc2ccn1-c1ccc(F)cc1 [Compound 9i]
2. Cc1cc2ccnc(NCc3ccnc4ccccc34)c2c(=O)n1-c1ccc(Cl)cc1 [Compound 10l]
3. Cc1cc2ccnc(NCc3ccncc3)c2c(=O)n1-c1ccc(Cl)cc1 [Compound 10k]

Response line:
1. > 5 µM
2. > 5 µM
3. > 5 µM

The following molecules each have a reported value; give each one's IC50.
1. Cc1cc2ccnc(Nc3cccnc3)c2c(=O)n1-c1ccc(OC(F)(F)F)cc1 [Compound 10m]
2. O=c1c2c(Nc3cccnc3)nccc2ccn1-c1ccc(F)cc1 [Compound 9d]

Response line:
1. > 5 µM
2. > 5 µM

The following molecules each have a reported value; give each one's IC50.
1. Cc1cc2ccnc(NCc3cccnc3)c2c(=O)n1-c1ccccc1 [Compound 10f]
2. Cc1cc2ccnc(Nc3cccnc3)c2c(=O)n1-c1ccc(Cl)cc1 [Compound 10i]
3. Cc1cc2ccnc(NCc3ccncc3)c2c(=O)n1-c1ccc(OC(F)(F)F)cc1 [Compound 10o]

Response line:
1: > 5 µM; 2: > 5 µM; 3: > 5 µM

----------
- assayTarget: VEGFR-2 (Homo sapiens, UniProt P35968)
- Construct: was evaluated using an enzyme assay with a recombinant kinase domain
- methodNotes: HTRF enzyme assay with recombinant VEGFR-2 kinase domain
- recordedConditions: purified recombinant VEGFR-2 kinase domain, HTRF; read-out: Inhibitory Activity, IC50, VEGFR-2
measuredEndpoint: IC50

Worked examples follow.
Cc1cc2ccnc(NCc3ccncc3)c2c(=O)n1-c1ccc(Cl)cc1 [Compound 10k]: 0.263 µM
Cc1cc2ccnc(NCc3cccnc3)c2c(=O)n1-c1ccc(Cl)cc1 [Compound 10j]: > 5 µM
O=c1c2c(Nc3ccc4ccncc4c3)nccc2ccn1-c1ccc(F)cc1 [Compound 9e]: > 5 µM
Cc1cc2ccnc(NCc3ccco3)c2c(=O)n1-c1ccc(OC(F)(F)F)cc1 [Compound 10p]: > 5 µM
O=c1c2c(NCc3ccnc4ccccc34)nccc2ccn1-c1ccc(F)cc1 [Compound 9k]: 0.238 µM
Cc1cc2ccnc(NCc3ccncc3)c2c(=O)n1-c1ccccc1 [Compound 10g]: > 5 µM
O=c1c2c(Nc3ccccc3)nccc2ccn1-c1ccc(F)cc1 [Compound 9a]: > 5 µM
Nc1nccc(Oc2ccc(Nc3nccc4ccn(-c5ccc(F)cc5)c(=O)c34)cc2F)c1Cl [Compound 3, reference compound]: 0.28 µM

# context switch: different compound, same IC50
Query Cc1cccc(C)c1Nc1nccc2ccn(-c3ccc(F)cc3)c(=O)c12 [Compound 9b] yields IC50 of > 5 µM

----------
- assayTarget: c-Kit (Homo sapiens, UniProt P10721)
- Construct: was evaluated using an enzyme assay with a recombinant kinase domain
- Sequence (P10721 589-937 limits assumed): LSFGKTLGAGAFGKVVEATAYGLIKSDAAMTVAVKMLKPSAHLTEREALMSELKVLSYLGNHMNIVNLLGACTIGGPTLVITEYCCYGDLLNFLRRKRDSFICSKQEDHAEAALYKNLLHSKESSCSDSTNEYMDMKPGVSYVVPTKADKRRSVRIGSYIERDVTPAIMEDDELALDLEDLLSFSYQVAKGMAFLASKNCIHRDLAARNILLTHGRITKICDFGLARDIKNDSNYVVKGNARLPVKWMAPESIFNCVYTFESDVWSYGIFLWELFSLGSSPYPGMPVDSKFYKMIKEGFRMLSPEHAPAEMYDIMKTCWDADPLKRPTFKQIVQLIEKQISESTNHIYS
- methodNotes: HTRF enzyme assay with recombinant c-Kit kinase domain
- recordedConditions: purified recombinant c-Kit kinase domain, HTRF; read-out: Inhibitory Activity, IC50, c-Kit
pIC50: −log10 of the molar value.
measuredEndpoint: pIC50

O=c1c2c(Nc3cccnc3)nccc2ccn1-c1ccc(F)cc1: < 5.30
Cc1cc2ccnc(NCc3ccnc4ccccc34)c2c(=O)n1-c1ccc(F)cc1F [Compound 10s]: < 5.30
O=c1c2c(NCc3cccc4ccccc34)nccc2ccn1-c1ccc(F)cc1: < 5.30
Cc1cc2ccnc(NCc3ccncc3)c2c(=O)n1-c1ccc(Cl)cc1 [Compound 10k]: < 5.30

The following compounds each have a reported value; give each one's pIC50.
1. Nc1nccc(Oc2ccc(Nc3nccc4ccn(-c5ccc(F)cc5)c(=O)c34)cc2F)c1Cl [Compound 3, reference compound]
2. O=c1c2c(NCc3ccnc4ccccc34)nccc2ccn1-c1ccc(F)cc1
3. Cc1cccc(C)c1Nc1nccc2ccn(-c3ccc(F)cc3)c(=O)c12

Response line:
1: 6.48; 2: 8.07; 3: < 5.30

The following compounds each have a reported value; give each one's pIC50.
1. O=c1c2c(Nc3ccccc3)nccc2ccn1-c1ccc(F)cc1
2. O=c1c2c(NCc3ccco3)nccc2ccn1-c1ccc(F)cc1
3. Cc1cc2ccnc(Nc3cccnc3)c2c(=O)n1-c1ccc(Cl)cc1 [Compound 10i]

Response line:
1: < 5.30; 2: < 5.30; 3: < 5.30

----------
- assayTarget: c-Kit (Homo sapiens, UniProt P10721)
- Construct: was evaluated using an enzyme assay with a recombinant kinase domain
- methodNotes: HTRF enzyme assay with recombinant c-Kit kinase domain
- recordedConditions: purified recombinant c-Kit kinase domain, HTRF; read-out: Inhibitory Activity, IC50, c-Kit
- Protocol: The ability of the synthesized compounds to inhibit MET, c-Kit, and VEGFR-2 activities was evaluated using an enzyme assay with a recombinant kinase domain [29]. […] The ability of compounds to inhibit the activity of three kinases (MET, c-Kit, and VEGFR-2) was tested in vitro [30]. Enzyme assays were run in homogeneous time-resolved fluorescence (HTRF) format in 384-well microtiter plates using purified kinases purchased from Invitrogen (Carlsbad, CA, US). […]
pIC50: −log10 of the molar value.
What pIC50 was measured for each of the following?

Cc1cc2ccnc(Nc3cccnc3)c2c(=O)n1-c1ccc(OC(F)(F)F)cc1 [Compound 10m]: < 5.30
Cc1cc2ccnc(NCc3ccnc4ccccc34)c2c(=O)n1-c1ccc(F)cc1 [Compound 10d]: 5.79

# context switch: different compound, same pIC50
Query `O=c1c2c(Nc3c(Cl)cccc3Cl)nccc2ccn1-c1ccc(F)cc1` yields pIC50 of < 5.30
